Experiment: protein stability index of a GFP-peptide fusion (yeast GPS) (PSI 1-4); higher = more stable; sorted into four equal gates, so the index is relative within each strain
Conditions: san1∆
// label = Yes if protein stability index is not less than 3, otherwise No

Previously resolved entries follow.
ETYVASYVVPRLYLKDQ [ECM29]	No
LEQDLHFENAKVIDLDT [YIL149C/MLP2]	No
SVDICNNSKSRYPMNLL [ECM29]	No
IVQFTYGGDGLDPLEME [RPO31]	No
KSTASTAAANTEKLSNG [YOR098C/NUP1]	Yes

query: Threshold query (protein stability index >= 3) on NLAIVELVRLLIIDEIH [BRR2]
result: No

query: For this sequence, is measured protein stability index 3 or higher? TFRIFHNHDTGCDENDS [YDL088C/ASM4]
result: Yes

query: Quick check: does IRKDPNNLSNQLETLTG [CSE2] have protein stability index greater than or equal to 3?
result: No
